Attribution: ChEMBL document CHEMBL4296182

System: Klebsiella pneumoniae
STUDY CONDITIONS: Concentration 20 uM; ASSAY_TEST Inhibition of Bacterial Growth; detection method Absorption (OD600); MEDIA CAMHB; plate type 384well; NBS; CORNING #3640; time 18 hr
Description: Antibacterial activity against Klebsiella pneumoniae MDR ATCC 70063 (CO-ADD:GN_003); MIC in CAMBH media using NBS plates, by OD(600)
Entries with a potency or affinity are not part of this list.
# if value of Inhibition reaches 10%, tag condition met; if it stays below, tag condition not met

Example cases with answers are listed next.
Asked: Confirm if Inhibition reported for the molecule C/C(=N\O)[C@H]1CC[C@H]2[C@@H]3CC[C@@H]4C/C(=N/O)CC[C@]4(C)[C@H]3[C@@](C)(O)C[C@]12C is 10% or above.
Given back: condition not met

Asked: Confirm if Inhibition reported for the molecule O=C(NCc1ccco1)Nc1ccc([N+](=O)[O-])cc1 is 10% or above.
Given back: condition met

Asked: Confirm if Inhibition reported for the molecule Cn1cnc([N+](=O)[O-])c1Sc1nnc(-c2cccnc2)n1C is 10% or above.
Given back: condition met

Others:
Asked: Confirm if Inhibition reported for the molecule NC(=O)c1ccc2c(c1)S(=O)(=O)c1ccccc1C2=O is 10% or above.
Given back: condition met

Asked: Confirm if Inhibition reported for the molecule C[C@]12CC[C@H](O)CC1=CC[C@@H]1[C@@H]2CC[C@]2(C)c3n[nH]cc3C[C@@H]12 is 10% or above.
Given back: condition not met

Asked: Confirm if Inhibition reported for the molecule Cc1ccc(Cl)cc1NC(=O)c1cc2ccccc2cc1O is 10% or above.
Given back: condition met

Asked: Confirm if Inhibition reported for the molecule COc1ccc(C2C3=C(COC3=O)Oc3cc4c(cc32)OCO4)cc1OC (stereo not drawn) is 10% or above.
Given back: condition met

Asked: Confirm if Inhibition reported for the molecule CCOc1ccc(NC(=O)C2CCCN(C)C2)cc1 (stereo not drawn) is 10% or above.
Given back: condition met

Asked: Confirm if Inhibition reported for the molecule Oc1ccc2ccc3[nH]cnc3c2c1 is 10% or above.
Given back: condition not met

Asked: Confirm if Inhibition reported for the molecule Cc1cc(-c2ccc(N3C(=O)CC4(CCCC4)C3=O)c(C)c2)ccc1N1C(=O)CC2(CCCC2)C1=O is 10% or above.
Given back: condition not met

Asked: Confirm if Inhibition reported for the molecule CC1=C(C(N)=O)S(=O)(=O)c2ccccc21 is 10% or above.
Given back: condition not met

Asked: Confirm if Inhibition reported for the molecule NC(=O)c1cc(Br)cc(C2CCCCC2)c1O is 10% or above.
Given back: condition met

Asked: Confirm if Inhibition reported for the molecule COc1ccc(CC(=O)c2ccc(O)cc2O)cc1 is 10% or above.
Given back: condition met

Asked: Confirm if Inhibition reported for the molecule CC1(C)SC(C)(C)N(C=O)C1C(=O)O (stereo not drawn) is 10% or above.
Given back: condition not met

Asked: Confirm if Inhibition reported for the molecule CN(C)Cc1cc(C(F)(F)F)ccc1C(O)(c1ccccc1)c1ccccc1 is 10% or above.
Given back: condition met

Asked: Confirm if Inhibition reported for the molecule O=C1c2cccc3cc([N+](=O)[O-])cc(c23)C(=O)N1CCN1CCCC1 [PINAFIDE] is 10% or above.
Given back: condition not met

Asked: Confirm if Inhibition reported for the molecule NS(=O)(=O)c1ccc(Nc2ccccc2)c([N+](=O)[O-])c1 is 10% or above.
Given back: condition not met

Asked: Confirm if Inhibition reported for the molecule COc1cc(C(=O)C(=O)c2cc(OC)c(O)c(OC)c2)cc(OC)c1O is 10% or above.
Given back: condition not met

Asked: Confirm if Inhibition reported for the molecule O=C1COc2c1ccc(O)c2O is 10% or above.
Given back: condition not met

Asked: Confirm if Inhibition reported for the molecule COc1cc(CC(=O)C(=O)O)oc(=O)c1 is 10% or above.
Given back: condition met

Asked: Confirm if Inhibition reported for the molecule CC(=O)c1cc2c(cc1C)CCCC2(C)C is 10% or above.
Given back: condition not met

Asked: Confirm if Inhibition reported for the molecule O=[N+]([O-])c1cc2cccnc2c2ncccc12 is 10% or above.
Given back: condition not met

Asked: Confirm if Inhibition reported for the molecule N=C(N)n1c(N)nc2ccccc2c1=O is 10% or above.
Given back: condition not met
